Assign pEC50 to each entry below.
Biological target: recombinant human PKM2 (Homo sapiens, UniProt P14618)
Construct: His (N); purchased R&D Systems
Sequence (P14618 2-531 limits assumed): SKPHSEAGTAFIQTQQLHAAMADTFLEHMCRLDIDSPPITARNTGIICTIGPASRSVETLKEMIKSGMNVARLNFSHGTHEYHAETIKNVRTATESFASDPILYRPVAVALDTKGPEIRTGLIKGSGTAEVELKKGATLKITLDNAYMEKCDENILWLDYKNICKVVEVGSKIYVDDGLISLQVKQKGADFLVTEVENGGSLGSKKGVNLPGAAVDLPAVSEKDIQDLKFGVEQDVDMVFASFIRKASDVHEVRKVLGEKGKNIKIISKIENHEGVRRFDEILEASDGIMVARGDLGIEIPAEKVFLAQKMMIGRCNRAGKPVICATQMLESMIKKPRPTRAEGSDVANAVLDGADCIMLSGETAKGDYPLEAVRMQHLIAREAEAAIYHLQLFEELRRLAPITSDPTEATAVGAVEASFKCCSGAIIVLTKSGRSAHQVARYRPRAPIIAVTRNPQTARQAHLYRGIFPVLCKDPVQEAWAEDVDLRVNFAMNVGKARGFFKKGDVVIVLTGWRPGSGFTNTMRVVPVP
Assay: Human PKM2 activation assay (Kinase-Glo Plus luminescent detection of generated ATP)
Assay type: biochemical
Details: recombinant human PKM2 activation; 4-parameter logistic fit; read-out: hPKM2 EC50
// pEC50 here means minus log10 of the molar concentration (mol/L)

Memo: Cn1cc(S(=O)(=O)c2ccc3c(=O)n(Cc4cccc(C5CC5)n4)ncc3c2)cn1 [Example 275] , reported pEC50: 7.30

Memo: COc1ccc(S(=O)(=O)c2ccc3c(=O)n(Cc4cc[nH]n4)ncc3c2)cc1 [Example 6] , reported pEC50: 7.41

Memo: CCn1ccc(Cn2ncc3cc(S(=O)(=O)c4ccccc4)ccc3c2=O)n1 [Example 11] , reported pEC50: 7.14

Memo: Cc1cc(Cn2ncc3cc(S(=O)(=O)c4ccccc4)ccc3c2=O)no1 [Example 80] , reported pEC50: 6.10

Memo: O=c1c2ccc(S(=O)(=O)c3ccccc3)cc2cnn1Cc1ccc2c(c1)OCCO2 [Example 29] , reported pEC50: 7.47

Memo: COc1ccc(S(=O)(=O)c2ccc3c(=O)n(Cc4n[nH]cc4C)ncc3c2)cc1 [Example 104] , reported pEC50: 7.25

Memo: Cc1onc(C(N)=O)c1Cn1ncc2cc(S(=O)(=O)c3ccccc3)ccc2c1=O [Example 94] , reported pEC50: 6.23

Memo: Cc1nc(Cn2ncc3cc(S(=O)(=O)c4ccccc4)ccc3c2=O)cs1 [Example 77] , reported pEC50: 7.20

Memo: Cc1nc(S(=O)(=O)c2ccc3c(=O)n(Cc4ccn(C)n4)ncc3c2)cs1 [Example 214] , reported pEC50: 6.59

Memo: COc1ccc(S(=O)(=O)c2ccc3c(=O)n(Cc4cc(C(F)(F)F)no4)ncc3c2)cc1 [Example 112] , reported pEC50: 7.67

Memo: O=c1c2ccc(S(=O)(=O)c3ccccc3)cc2cnn1Cc1ccn(CCO)n1 [Example 10] , reported pEC50: 6.78

Memo: COc1ccc(Cn2ncc3cc(S(=O)(=O)c4cnn(C)c4)ccc3c2=O)cn1 [Example 168] , reported pEC50: 6.99

Memo: NC(=O)c1c(Cl)cccc1Cn1ncc2cc(S(=O)(=O)c3ccccc3)ccc2c1=O [Example 91] , reported pEC50: 6.26

Memo: Cc1cc(Cn2ncc3cc(S(=O)(=O)c4ccccc4)ccc3c2=O)n[nH]1 [Example 96] , reported pEC50: 7.20

Memo: O=c1c2ccc(S(=O)(=O)c3cc[nH]n3)cc2cnn1Cc1ccc2occc2n1 [Example 335] , reported pEC50: 7.85

Memo: Cn1cc(S(=O)(=O)c2ccc3c(=O)n(Cc4cc(Cl)[nH]n4)ncc3c2)cn1 [Example 317] , reported pEC50: 6.77

Memo: COc1ccc(Cn2ncc3cc(S(=O)(=O)c4ccccc4)ccc3c2=O)cc1 [Example 49] , reported pEC50: 6.91

Memo: COc1ccc(S(=O)(=O)c2ccc3c(=O)n(Cc4cccn(C)c4=O)ncc3c2)cc1 [Example 4] , reported pEC50: 7.27

Memo: COc1ccc(S(=O)(=O)c2ccc3c(=O)n(Cc4ccc(C)nc4O)ncc3c2)cc1 [Example 98] , reported pEC50: 6.59

Memo: Cc1cccc(Cn2ncc3cc(S(=O)(=O)c4ccccc4)ccc3c2=O)n1 [Example 75] , reported pEC50: 7.32

Memo: COc1ccc(S(=O)(=O)c2ccc3c(=O)n(Cc4ncccc4O)ncc3c2)cc1 [Example 113] , reported pEC50: 6.79

Memo: COc1ccc(S(=O)(=O)c2ccc3c(=O)n(Cc4c(F)cc(OC)cc4F)ncc3c2)cc1 [Example 53] , reported pEC50: 7.23

Memo: Cc1cn(C)nc1Cn1ncc2cc(S(=O)(=O)c3ccccc3)ccc2c1=O [Example 89] , reported pEC50: 7.29

Memo: Cn1ccc(S(=O)(=O)c2ccc3c(=O)n(Cc4cccc(N)c4)ncc3c2)n1 [Example 145] , reported pEC50: 6.81

Memo: O=c1c2ccc(S(=O)(=O)c3cn[nH]c3)cc2cnn1Cc1cc2n(n1)CCO2 [Example 323] , reported pEC50: 7.30

Memo: Cn1ccc(Cn2ncc3cc(S(=O)(=O)c4cnn(C5CC5)c4)ccc3c2=O)n1 [Example 194] , reported pEC50: 7.11

Memo: COc1ccc(Cn2ncc3cc(S(=O)(=O)c4ccccc4Cl)ccc3c2=O)cn1 [Example 163] , reported pEC50: 6.87

Data credit: patent US20260152487A1
